Assay: Lipophilicity, log P of the compound
Assay type: physicochemical
Details: octanol/water
Documented logP across a set of molecules

Consider the following illustrative entries.
| Molecule | logP |
| --- | --- |
| COc1ccc(C(NC(C)=O)c2c(O)ccc3oc4ccccc4c23)cc1 (stereo unspecified) | 2.87 |
| CC(=O)NC(c1ccc(Br)cc1)c1c(O)ccc2oc3ccccc3c12 (stereo unspecified) | 3.83 |
| COc1ccc(C2NC(=O)Oc3ccc4oc5ccccc5c4c32)cc1 (stereo unspecified) | 3.48 |
| COc1cc(C2NC(=O)Oc3ccc4oc5ccccc5c4c32)cc(OC)c1OC (stereo unspecified) | 3.23 |

Let's switch to this molecule now.
Which logP value belongs to O=C1NC(c2ccccc2)c2c(ccc3oc4ccccc4c23)O1 (stereo unspecified) ?
3.61
